Biological target: YU2_(gp140) (foldon trimer) (HIV-1 (strain YU2))
EXPERIMENTAL_ENDPOINT: binding result

561_01_29 (antibody, V domains shown) VH: QLVQSGGGVRRPGASVKVSCETPEYTFTKYWLHWLRQAPGRGLEWMGVVSPHGGRPMFAFEFRDRLTLTRDIHTTTHYMELRGLTSDDTAVYFCARDSFGETFRGHDQPYQMDLWGGGTTVVVSS VL: EPVLTQSPGTLSLSPGEGVTLSCRARQGFSADHVAWFQKKPGRPPRLLIFETSRRASGTPERFSGGGSGPEYTLTITRVEPEDFAVYYCQSYGSITPLVFGGGTRVDVK    binds
561_01_21 (antibody, V domains shown) VH: QRRLFQSGTEVKRPGASVKISCRADDDPYTDDDTFTKYYTHWIRQAPGQRPEWLGVISPHFARPIYSYKFQDRLTLTRDSSLTAVYFELRGLQPDDTGIYFCARDPFGDMYPHYNYHMDVWGGGTTVIVSA VL: EVVLTQSPAILSVSPGDRVILSCKASEGLSSSDLAWYRFKGGQIPTLVIFGTSTRARGTPDRFSGSGSGTDFTLTISRVEPEDFATYYCQRYGGTPITFGGGTTLDKK    binds
